Tested on: HEK-293T
Assay: Incucyte cell viability with HEK293T; also: filed as whole numbers so only -1 and 0 and 1 occur
Format: toxicity, cell-based
Conditions: human, 0 h, 10 µM, compound concentration 10 uM, replicate number 2, timepoint 0 hours
Attribute measured: Growth Rate
Give bare numbers.

Parameters: items (list). Returns: Growth Rate for each item.
1. CC1=C(C#N)C(c2ccc3c(c2)c(NC(=O)c2ccccc2C)nn3C)C(C#N)=C(C)N1
2. CC(C)CC(=O)N1CCc2nc(-c3ccc(Br)cc3)nc(N(C)Cc3ccccc3)c2C1
3. N#Cc1ccccc1OCC(O)CNCCNC(=O)Nc1ccccc1 (stereo not drawn)
4. CNc1cc2[nH]c(=O)n(-c3ccc(NC(=O)NS(=O)(=O)c4ccc(Cl)s4)cc3)c(=O)c2cc1F

[1, 1, 0, 0]

----------
Test system: U2OS
Assay: Multiplex assay against U2OS
Type: toxicity, cell-based
Settings: human, 12 h, 1 µM, compound concentration 1 uM, replicate 1
Attribute measured: Population Pyknosed Nuclei (%)
Answer as a quantity: numeral, then unit.

>  <Smiles record>
N#Cc1cnc(Nc2cc(NC[C@H]3CNCCO3)c(C(F)(F)F)cn2)cn1

>  <Attribute measured>
Population Pyknosed Nuclei (%)

>  <Value reported>
9%

$$$$
>  <Smiles record>
CNC(=O)c1cc(Oc2ccc(NC(=O)Nc3cc(C(C)(C)C)nn3-c3ccc4ncccc4c3)c(F)c2)ccn1

>  <Attribute measured>
Population Pyknosed Nuclei (%)

>  <Value reported>
7%

$$$$
>  <Smiles record>
COc1cc2c(Nc3ccc(NC(=O)c4ccccc4)cc3)ncnc2cc1OCCCN1CCOCC1

>  <Attribute measured>
Population Pyknosed Nuclei (%)

>  <Value reported>
13%

$$$$

Turning now to a further compound:
Kindly note the recorded Population Pyknosed Nuclei (%) for CCOc1cc2ncc(C#N)c(Nc3ccc(OCc4cccc(F)c4)c(Cl)c3)c2cc1NC(=O)/C=C/CN(C)C , which is 8%

----------
Tested on: Fibroblast
Experiment: Multiplex assay against human fibroblast
Assay type: toxicity, cell-based
Conditions: 12 h, 10 µM, compound concentration 10 uM, replicate 1
Attribute measured: Population Normal (%)
Answer as a quantity: numeral, then unit.

>  <Compound>
CCOc1cc2ncc(C#N)c(Nc3ccc(OCc4cccc(F)c4)c(Cl)c3)c2cc1NC(=O)/C=C/CN(C)C [HKI-357]

>  <Population Normal (%)>
86%

$$$$
>  <Compound>
CC(C)(C)c1cnc(CSc2cnc(NC(=O)C3CCNCC3)s2)o1 [BMS-387032]

>  <Population Normal (%)>
91%

$$$$
>  <Compound>
COc1cc(N2CCC(N(C)C)CC2)ccc1Nc1ncc(Cl)c(Nc2ccccc2P(C)(C)=O)n1

>  <Population Normal (%)>
86%

$$$$
>  <Compound>
Cl.Cl.Nc1ncnc2c1c(-c1cccc(OCc3ccccc3)c1)cn2[C@H]1C[C@@H](CN2CCC2)C1

>  <Population Normal (%)>
61%

$$$$
>  <Compound>
CCC(=O)O[C@]1(C(=O)SCF)[C@H](C)C[C@H]2[C@@H]3C[C@H](F)C4=CC(=O)C=C[C@]4(C)[C@@]3(F)[C@@H](O)C[C@@]21C [FLUTICASONE PROPIONATE]

>  <Population Normal (%)>
83%

$$$$
>  <Compound>
Cc1cc2c(cc1N1C(=O)c3cccc4c(CCCO)ccc(c34)C1=O)n(C)c(=O)n2C

>  <Population Normal (%)>
87%

$$$$

Parameters: items (list). Returns: Population Normal (%) for each item.
1. CN(C)CCOc1ccc(-c2nc(-c3ccncc3)c(-c3ccc4c(c3)CC/C4=N\O)[nH]2)cc1 [SB590885]
2. COc1ccc(NS(=O)(=O)c2sc3ccc(Cl)cc3c2C)cc1N1CCNCC1.Cl
3. Cl.Cl.NC1(c2ccc(-c3nc4ccn5c(=O)[nH]nc5c4cc3-c3ccccc3)cc2)CCC1

["85%", "77%", "50%"]

Parameters: items (list). Returns: Population Normal (%) for each item.
1. CC(=O)c1cc(-c2cc(C(=O)NC3CC3)ccc2C)c2ncccn12
2. Cc1cn(-c2cc(NC(=O)c3ccc4c(c3)CN(c3cncnc3)C[C@@H]4C)cc(C(F)(F)F)c2)cn1
3. CCOc1cc(N2CCC(O)CC2)ccc1Nc1ncc2c(n1)N(C1CCCC1)CCC(=O)N2C
4. Cc1nc(Cc2cccc(C(F)(F)F)c2)sc1-c1ccc(C(N)=O)nc1 [TP-024n]
5. Nc1ccc(C(=O)Nc2cccc(-c3nc(N4CCOCC4)c4oc5ncccc5c4n3)c2)cn1
6. CC(C)N1CCC(C)(C)c2cc(C#Cc3ccc(C(=O)O)cc3)ccc21
7. CCc1cc2c(cc1CC)CC(NC[C@H](O)c1ccc(O)c3[nH]c(=O)ccc13)C2 [INDACATEROL]
8. CCn1c(-c2nonc2N)nc2cnc(Oc3cccc(NC(=O)c4ccc(OCCN5CCOCC5)cc4)c3)cc21 [GSK-269962A]

1. 75%
2. 86%
3. 85%
4. 86%
5. 58%
6. 23%
7. 77%
8. 87%

----------
System: HEK-293T
Assay: Multiplex assay against HEK293T;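 as to Population Tubulin-Different-Phenotype (%): share of the cells with healthy nuclei that show this phenotype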
Format: toxicity, cell-based
Details: human, 24 h, 10 µM, compound concentration 10 uM, replicate 1
Attribute measured: Population Tubulin-Different-Phenotype (%)
Give bare numbers, in %.

Parameters: items (list). Returns: Population Tubulin-Different-Phenotype (%) for each item.
1. CCCn1c(=O)c2[nH]c(C34CC5CC(CC3C5)C4)nc2n(CCC)c1=O
2. CCc1cc2c(cc1CC)CC(NC[C@H](O)c1ccc(O)c3[nH]c(=O)ccc13)C2
3. Nc1nc2c(c(N3CCNCC3)n1)CCC1=C2[C@@H]2CCCC[C@@H]2O1
4. Cc1cc2c(cc1N1C(=O)c3cccc4c(CCCO)ccc(c34)C1=O)n(C)c(=O)n2C
5. CC(C)Oc1ccc(C(=O)N[C@H](CNC(=O)CN(C)C)Cc2ccc(-c3cn4cccc([C@H](C)O)c4n3)cc2)cc1Cl [GSK-923295A]

1. 71
2. 50
3. 95
4. 91
5. 91

----------
Tested on: HEK-293T
Assay: Multiplex assay against HEK293T
Assay type: toxicity, cell-based
Settings: human, 24 h, 10 µM, compound concentration 10 uM, replicate 1
Assign Total Cell Count to each entry below.

>  <Compound>
CCc1cc2c(cc1CC)CC(NC[C@H](O)c1ccc(O)c3[nH]c(=O)ccc13)C2 [INDACATEROL]

>  <Attribute measured>
Total Cell Count

>  <Value reported>
213

$$$$

Parameters: items (list). Returns: Total Cell Count for each item.
1. c1ccc2oc(-c3csc(C4CCN(Cc5nc6ncccc6[nH]5)CC4)n3)cc2c1
2. CCn1c(-c2nonc2N)nc2cnc(Oc3cccc(NC(=O)c4ccc(OCCN5CCOCC5)cc4)c3)cc21 [GSK-269962A]

1: 500; 2: 276

Kindly note the recorded Total Cell Count for CNC(=O)c1cc(Oc2ccc(NC(=O)Nc3cc(C(C)(C)C)nn3-c3ccc4ncccc4c3)c(F)c2)ccn1 [REBASTINIB] , which is 485

----------
System: Fibroblast
Experiment: Multiplex assay against human fibroblast
Assay type: toxicity, cell-based
Settings: 48 h, 1 µM, compound concentration 1 uM, replicate 1
Lab note: class by Population Mitotic Cells (%), see one = under 30%, two = from 30% up to 60%, three = 60% and over

>  <Compound>
Nc1ccc(C(=O)Nc2cccc(-c3nc(N4CCOCC4)c4oc5ncccc5c4n3)c2)cn1

>  <Label>
two

$$$$

Class? Entry: Cc1nc(Cc2cccc(C(F)(F)F)c2)sc1-c1ccc(C(N)=O)nc1 [TP-024n]
two

Class? Entry: CCC(=O)O[C@]1(C(=O)SCF)[C@H](C)C[C@H]2[C@@H]3C[C@H](F)C4=CC(=O)C=C[C@]4(C)[C@@]3(F)[C@@H](O)C[C@@]21C [FLUTICASONE PROPIONATE]
two

Class? Entry: CCc1cc2c(cc1CC)CC(NC[C@H](O)c1ccc(O)c3[nH]c(=O)ccc13)C2
three

Class? Entry: Cl.Cl.Nc1ncnc2c1c(-c1cccc(OCc3ccccc3)c1)cn2[C@H]1C[C@@H](CN2CCC2)C1
one

Class? Entry: COc1ccc(NS(=O)(=O)c2sc3ccc(Cl)cc3c2C)cc1N1CCNCC1.Cl
two

----------
Assign Population Fragmented Nuclei (%) to each entry below.
System: U2OS
Experiment: Multiplex assay against U2OS
Assay type: toxicity, cell-based
Settings: human, 24 h, 1 µM, compound concentration 1 uM, replicate 1

Parameters: items (list). Returns: Population Fragmented Nuclei (%) for each item.
1. CNC(=O)c1nn(C)c2c1C(C)(C)Cc1cnc(Nc3ccc(N4CCN(C)CC4)cc3)nc1-2 [MILCICLIB]
2. CNC(=O)c1cc(Oc2ccc(NC(=O)Nc3cc(C(C)(C)C)nn3-c3ccc4ncccc4c3)c(F)c2)ccn1 [REBASTINIB]
3. CCOc1cc(N2CCC(O)CC2)ccc1Nc1ncc2c(n1)N(C1CCCC1)CCC(=O)N2C
4. CC(C)N1CCC(C)(C)c2cc(C#Cc3ccc(C(=O)O)cc3)ccc21

1. 17%
2. 6%
3. 7%
4. 11%

The measurements presented in this section are drawn from ChEMBL document CHEMBL4689842.
